Assign combination Emax to each entry below.
# Test system: DU-145 (Prostate Carcinoma)
# Method summary: combination Emax (second highest fraction inhibited in the dose matrix, 72 h); higher = more inhibition; extreme values may be limits of the assay

[Q] Write combination Emax of CC1(C)CCC(CN2CCN(c3ccc(C(=O)NS(=O)(=O)c4ccc(NCC5CCOCC5)c([N+](=O)[O-])c4)c(Oc4cnc5[nH]ccc5c4)c3)CC2)=C(c2ccc(Cl)cc2)C1 [Venetoclax] + COc1cc(Nc2ncc3c(n2)-c2ccc(Cl)cc2C(c2c(F)cccc2OC)=NC3)ccc1C(=O)O [Alisertib] (first compound max 1 µM, 7x7, partner max 10 µM) ; system used: DU-145 (Prostate Carcinoma)
[A] 0.268

[Q] Write combination Emax of Cc1c2c(nn1C)CSCc1cc(n(C)n1)CSc1cc(c3ccccc3c1)OCCCc1c(C(=O)O)n(C)c3c-2c(Cl)ccc13 [AZD5991] + C[C@@H]1COCCN1C2=NC(=NC(=C2)C3(CC3)[S@](=N)(=O)C)C4=C5C=CNC5=NC=C4 [AZD6738] (first compound max 1 µM, 7x7, partner max 10 µM) ; system used: DU-145 (Prostate Carcinoma)
[A] 0.621

[Q] Write combination Emax of CN(C)CCCOc1ccc(-c2ccc3ncc4c(c3c2)n(C2CCOCC2)c(=O)n4C)cn1 [AZD0156] + C=CCn1c(=O)c2cnc(Nc3ccc(N4CCN(C)CC4)cc3)nc2n1-c1cccc(C(C)(C)O)n1 [AZD1775] (first compound max 1 µM, partner max 1 µM) ; system used: DU-145 (Prostate Carcinoma)
[A] 0.239

[Q] Write combination Emax of Cc1c2c(nn1C)CSCc1cc(n(C)n1)CSc1cc(c3ccccc3c1)OCCCc1c(C(=O)O)n(C)c3c-2c(Cl)ccc13 [AZD5991] + Cc1cc2ncnn2cc1Nc1ncc2c(n1)n(C1CCOCC1)c(=O)n2C [AZD7648] (first compound max 1 µM, 7x7, partner max 10 µM) ; system used: DU-145 (Prostate Carcinoma)
[A] 0.23

[Q] Write combination Emax of CCc1c2c(nc3ccc(O)cc13)-c1cc3c(c(=O)n1C2)COC(=O)[C@]3(O)CC [SN-38] + CN(C)CCCOc1ccc(-c2ccc3ncc4c(c3c2)n(C2CCOCC2)c(=O)n4C)cn1 [AZD0156] (first compound max 0.3 µM, 7x7, partner max 1 µM) ; system used: DU-145 (Prostate Carcinoma)
[A] 0.742

[Q] Write combination Emax of Cc1c2c(nn1C)CSCc1cc(n(C)n1)CSc1cc(c3ccccc3c1)OCCCc1c(C(=O)O)n(C)c3c-2c(Cl)ccc13 [AZD5991] + CS(=O)(=O)CCNCc1ccc(-c2ccc3ncnc(Nc4ccc(OCc5cccc(F)c5)c(Cl)c4)c3c2)o1 [Lapatinib] (first compound max 1 µM, 7x7, partner max 10 µM) ; system used: DU-145 (Prostate Carcinoma)
[A] 0.198

[Q] Write combination Emax of CC(=O)c1c(C)c2cnc(Nc3ccc(N4CCNCC4)cn3)nc2n(C2CCCC2)c1=O [Palbociclib] + Cc1c2c(nn1C)CSCc1cc(n(C)n1)CSc1cc(c3ccccc3c1)OCCCc1c(C(=O)O)n(C)c3c-2c(Cl)ccc13 [AZD5991] (first compound max 10 µM, 7x7, partner max 1 µM) ; system used: DU-145 (Prostate Carcinoma)
[A] 0.107

[Q] Write combination Emax of COc1nnc2ccc(N3CCC(c4ccc(OCCN5CCN(C)C(=O)[C@H]5C)cc4)CC3)nn12 [AZD5153] + C=CCn1c(=O)c2cnc(Nc3ccc(N4CCN(C)CC4)cc3)nc2n1-c1cccc(C(C)(C)O)n1 [AZD1775] (first compound max 1 µM, partner max 1 µM) ; system used: DU-145 (Prostate Carcinoma)
[A] 0.316

[Q] Write combination Emax of C=CCn1c(=O)c2cnc(Nc3ccc(N4CCN(C)CC4)cc3)nc2n1-c1cccc(C(C)(C)O)n1 [AZD1775] + O=C(c1cc(Cc2n[nH]c(=O)c3ccccc23)ccc1F)N1CCN(C(=O)C2CC2)CC1 [Olaparib] (first compound max 1 µM, partner max 10 µM) ; system used: DU-145 (Prostate Carcinoma)
[A] 0.255

[Q] Write combination Emax of C=CCn1c(=O)c2cnc(Nc3ccc(N4CCN(C)CC4)cc3)nc2n1-c1cccc(C(C)(C)O)n1 [AZD1775] + C[C@@H]1COCCN1C2=NC(=NC(=C2)C3(CC3)[S@](=N)(=O)C)C4=C5C=CNC5=NC=C4 [AZD6738] (first compound max 1 µM, partner max 10 µM) ; system used: DU-145 (Prostate Carcinoma)
[A] 0.604

[Q] Write combination Emax of CC(=O)c1c(C)c2cnc(Nc3ccc(N4CCNCC4)cn3)nc2n(C2CCCC2)c1=O [Palbociclib] + Cn1cnc2c(F)c(Nc3ccc(Br)cc3Cl)c(C(=O)NOCCO)cc21 [Selumetinib] (first compound max 10 µM, 7x7, partner max 10 µM) ; system used: DU-145 (Prostate Carcinoma)
[A] 0.12

[Q] Write combination Emax of COc1nnc2ccc(N3CCC(c4ccc(OCCN5CCN(C)C(=O)[C@H]5C)cc4)CC3)nn12 [AZD5153] + Cn1cnc2c(F)c(Nc3ccc(Br)cc3Cl)c(C(=O)NOCCO)cc21 [Selumetinib] (first compound max 1 µM, 7x7, partner max 10 µM) ; system used: DU-145 (Prostate Carcinoma)
[A] 0.28

[Q] Write combination Emax of CN(CCO)CC[C@H](CSc1ccccc1)Nc1ccc(S(=O)(=O)NC(=O)c2ccc(N3CCC([C@@H](O)c4ccccc4-c4ccc(Cl)cc4)CC3)cc2)cc1S(=O)(=O)C(F)(F)F [AZD4320] + C[C@@H](Nc1cc(F)cc(F)c1)c1cc(C(=O)N(C)C)cc2c(=O)cc(N3CCOCC3)oc12 [AZD8186] (first compound max 1 µM, 7x7, partner max 3 µM) ; system used: DU-145 (Prostate Carcinoma)
[A] 0.227

[Q] Write combination Emax of Cn1cnc2c(F)c(Nc3ccc(Br)cc3Cl)c(C(=O)NOCCO)cc21 [Selumetinib] + C=CCn1c(=O)c2cnc(Nc3ccc(N4CCN(C)CC4)cc3)nc2n1-c1cccc(C(C)(C)O)n1 [AZD1775] (first compound max 10 µM, partner max 1 µM) ; system used: DU-145 (Prostate Carcinoma)
[A] 0.239

[Q] Write combination Emax of NC1(C(=O)N[C@@H](CCO)c2ccc(Cl)cc2)CCN(c2ncnc3[nH]ccc23)CC1 [Capivasertib] + Cn1cnc2c(F)c(Nc3ccc(Br)cc3Cl)c(C(=O)NOCCO)cc21 [Selumetinib] (first compound max 10 µM, 7x7, partner max 10 µM) ; system used: DU-145 (Prostate Carcinoma)
[A] 0.219

* * *

Assign Bliss excess to each entry below.
# Tested on: SW982 (Other Solid Carcinomas);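 note: after 72 h of two-drug dosing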
# Method summary: Bliss excess, mean over the matrix (fraction); higher = more synergy
Response field accepts a number only; no unit should be typed.

[Q] Write Bliss excess of CC(=O)c1c(C)c2cnc(Nc3ccc(N4CCNCC4)cn3)nc2n(C2CCCC2)c1=O [Palbociclib] + Cn1cnc2c(F)c(Nc3ccc(Br)cc3Cl)c(C(=O)NOCCO)cc21 [Selumetinib] (first compound max 10 µM, 7x7, partner max 10 µM) ; system used: SW982 (Other Solid Carcinomas);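 note: after 72 h of two-drug dosing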
[A] -0.058

[Q] Write Bliss excess of Cc1c2c(nn1C)CSCc1cc(n(C)n1)CSc1cc(c3ccccc3c1)OCCCc1c(C(=O)O)n(C)c3c-2c(Cl)ccc13 [AZD5991] + CC(=O)O[C@H]1C(=O)[C@@]2(C)[C@H]([C@H](OC(=O)c3ccccc3)[C@]3(O)C[C@H](OC(=O)[C@H](O)[C@@H](NC(=O)c4ccccc4)c4ccccc4)C(C)=C1C3(C)C)[C@]1(OC(C)=O)CO[C@@H]1C[C@@H]2O [Paclitaxel] (first compound max 1 µM, 7x7, partner max 3 µM) ; system used: SW982 (Other Solid Carcinomas);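 note: after 72 h of two-drug dosing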
[A] -0.0039

* * *

# System: KMRC-1 (Kidney Carcinoma)
# Method summary: combination Emax (second highest fraction inhibited in the dose matrix, 72 h); higher = more inhibition; extreme values may be limits of the assay
Outcome: T for combination Emax of at least 0.2; F for anything lower.

[Q] Is it the case that CN(CCO)CC[C@H](CSc1ccccc1)Nc1ccc(S(=O)(=O)NC(=O)c2ccc(N3CCC([C@@H](O)c4ccccc4-c4ccc(Cl)cc4)CC3)cc2)cc1S(=O)(=O)C(F)(F)F [AZD4320] + CC(=O)O[C@H]1C(=O)[C@@]2(C)[C@H]([C@H](OC(=O)c3ccccc3)[C@]3(O)C[C@H](OC(=O)[C@H](O)[C@@H](NC(=O)c4ccccc4)c4ccccc4)C(C)=C1C3(C)C)[C@]1(OC(C)=O)CO[C@@H]1C[C@@H]2O [Paclitaxel] (first compound max 1 µM, 7x7, partner max 3 µM) has combination Emax reaching or exceeding 0.2?
[A] T

[Q] Is it the case that CC1(C)CCC(CN2CCN(c3ccc(C(=O)NS(=O)(=O)c4ccc(NCC5CCOCC5)c([N+](=O)[O-])c4)c(Oc4cnc5[nH]ccc5c4)c3)CC2)=C(c2ccc(Cl)cc2)C1 [Venetoclax] + C1CN(CCC1(C(=O)N[C@@H](CCO)C2=CC=C(C=C2)Cl)N)C3=NC=NC4=C3C=CN4 [Capivasertib] (first compound max 1 µM, 7x7, partner max 3 µM) has combination Emax reaching or exceeding 0.2?
[A] T

[Q] Is it the case that COc1cc2c(cc1OCCCCCOc1cc3c(cc1OC)C(=O)N1C=C(C)C[C@H]1C=N3)N=C[C@@H]1CC(C)=CN1C2=O [SG3199] + O=C(c1cc(Cc2n[nH]c(=O)c3ccccc23)ccc1F)N1CCN(C(=O)C2CC2)CC1 [Olaparib] (first compound max 0.001 µM, 7x7, partner max 10 µM) has combination Emax reaching or exceeding 0.2?
[A] F

[Q] Is it the case that CCN(CCO)CCCOc1ccc2c(Nc3cc(CC(=O)Nc4cccc(F)c4)[nH]n3)ncnc2c1 [AZD2811] + C=CCn1c(=O)c2cnc(Nc3ccc(N4CCN(C)CC4)cc3)nc2n1-c1cccc(C(C)(C)O)n1 [AZD1775] (first compound max 1 µM, partner max 1 µM) has combination Emax reaching or exceeding 0.2?
[A] F

[Q] Is it the case that CC1(C)CCC(CN2CCN(c3ccc(C(=O)NS(=O)(=O)c4ccc(NCC5CCOCC5)c([N+](=O)[O-])c4)c(Oc4cnc5[nH]ccc5c4)c3)CC2)=C(c2ccc(Cl)cc2)C1 [Venetoclax] + CS(=O)(=O)CCNCc1ccc(-c2ccc3ncnc(Nc4ccc(OCc5cccc(F)c5)c(Cl)c4)c3c2)o1 [Lapatinib] (first compound max 1 µM, 7x7, partner max 10 µM) has combination Emax reaching or exceeding 0.2?
[A] T

Hello, the source for this data is the supplement of paper PMC11061612, in case you need it.
